Test: Antiproliferative activity against human RPMI cells assessed as cell viability at 100 uM by MTT assay
Type: functional
Settings: read-out: Activity
Measured viability at 100 µM by item
Write the quantity with the unit trailing the number.

Some molecules with known viability at 100 µM results, for comparison:
Clc1ccc(N2CCn3c(COc4ccc(Cl)cc4Cl)nnc32)cc1 24.5%
Clc1ccc(OCc2nnc3n2CCN3c2ccc(Cl)cc2)cc1 34%
c1ccc(N2CCn3cnnc32)cc1 97.6%
Clc1ccc(N2CCn3cnnc32)cc1 87.5%

Now let's try a different one.
Request: Report viability at 100 µM for Cc1cc(Cl)ccc1OCc1nnc2n1CCN2c1ccc(Cl)cc1 please.
Response: 31.1%

* * *

compounds and their reported logKw
Assay: Lipophilicity, log kw in dioxane aqueous system at pH 3.5
Assay type: physicochemical
Conditions: buffer
Returns: the value as a bare number; no unit string appended.

Recorded results for 5 compounds are shown here.
c1ccc(N2CCn3cnnc32)cc1 1.16
Clc1ccc(OCc2nnc3n2CCN3c2ccc(Cl)cc2)cc1 3.41
Sc1nnc2n1CCN2c1ccc(Cl)cc1 -0.09
Clc1ccc(N2CCn3c(COc4ccc(Cl)cc4Cl)nnc32)cc1 4.15
Cc1ccc(N2CCn3c(COc4ccc(Cl)cc4C)nnc32)cc1 1.1

Request: Please give the measured logKw for this compound: c1ccc(OCc2nnc3n2CCN3c2ccccc2)cc1
Response: 1.78

Request: Data request, read-out logKw, for Cc1ccc(N2CCn3c(COc4ccc(Cl)cc4)nnc32)cc1
Response: 3.55

Request: Given the entry Clc1ccc(OCc2nnc3n2CCN3c2ccc(Cl)c(Cl)c2)c(Cl)c1 , report its measured logKw.
Response: 4.61

Request: Form field: reported logKw of COc1ccc(N2CCn3cnnc32)cc1
Response: 1.22

Request: Data request, read-out logKw, for Cc1cc(Cl)ccc1OCc1nnc2n1CCN2c1ccccc1
Response: 1.17

Request: For the compound Clc1ccc(N2CCn3cnnc32)cc1Cl , what logKw is on record?
Response: 2.49

Request: Item Clc1ccc(N2CCn3cnnc32)cc1 has what recorded logKw?
Response: 1.89

Request: Given the entry COc1ccc(N2CCn3c(COc4ccc(Cl)cc4)nnc32)cc1 , report its measured logKw.
Response: 1.52

Request: Report logKw for Cc1cc(Cl)ccc1OCc1nnc2n1CCN2c1ccc(Cl)cc1 please.
Response: 3.87

* * *

Tested on: HeLa
Experiment: Antiproliferative activity against human HeLa cells assessed as cell viability at 100 uM by MTT assay
Assay type: functional
Conditions: read-out: Activity
outcome-measure: viability at 100 µM (%)
Express it in %; write the number only.

Take a look at these entries with their results.
Cc1cc(Cl)ccc1OCc1nnc2n1CCN2c1ccc(Cl)cc1 71
Cc1cc(Cl)ccc1OCc1nnc2n1CCN2c1ccccc1 75.9

Request: viability at 100 µM lookup needed for Clc1ccc(OCc2nnc3n2CCN3c2ccc(Cl)cc2)cc1 , thanks.
Response: 52.4

Request: Entry under review: c1ccc(OCc2nnc3n2CCN3c2ccccc2)cc1 . Reported viability at 100 µM?
Response: 70.3

Request: Need viability at 100 µM of c1ccc(N2CCn3cnnc32)cc1 , thanks.
Response: 72.8

Request: If you can, please state the reported viability at 100 µM value of Cc1ccc(N2CCn3c(COc4ccc(Cl)cc4)nnc32)cc1 .
Response: 77.9

Request: Which viability at 100 µM is listed for COc1ccc(N2CCn3cnnc32)cc1 ?
Response: 80.6
